Assay: protein stability index of a GFP-peptide fusion (yeast GPS) (PSI 1-4); higher = more stable; sorted into four equal gates, so the index is relative within each strain
Details: ubr1∆
Below is a list of entries, each paired with its recorded protein stability index value.
quantityMeasured: protein stability index

- PKSASNTSSKRQKKKPT [IRR1]: 2.96
- QRKTVNSDDILSLHENY [POP1]: 2.92
- CAERVKIQQQQPGYADL [QCR6]: 3.09
- NNKKVVGTAIDSILNYA [ECM29]: 3.06
- GLKYALATGNWGEQKKA [RPB2]: 2.8
- SVGNLEVVKSLYDRPLK [NAS6]: 3.34
- LLESYKTLSLKSMASAF [RPN7]: 1.12
- IRPTELRLPFSAAMSID [PRP8]: 2.24
- LREHFKNTEEGKALVHH [QCR6]: 3.09
- LTNDTFEKKLSIIKAKL [YML103C/NUP188]: 3.3
- YEQHIENIEPLDPINLP [PRP8]: 2.8
- NTAFGNSNPTSNVFGSN [YJL041W/NSP1]: 3.6

* * *

Assay: protein stability index of a GFP-peptide fusion (yeast GPS) (PSI 1-4); higher = more stable; sorted into four equal gates, so the index is relative within each strain
Details: san1∆
Below is a list of entries, each paired with its recorded protein stability index value.
quantityMeasured: protein stability index

• IFTDAGRVYRPLFIVED [RPB2] = 2.06
• IDRKVEFSLPDLEGRAN [RPT1] = 3.08
• VVIDAKDHLLGRLASTI [RPL16B] = 1.17

* * *

Test: protein stability index of a GFP-peptide fusion (yeast GPS) (PSI 1-4); higher = more stable; sorted into four equal gates, so the index is relative within each strain
Details: san1∆
quantityMeasured: protein stability index

• SVAVHFQYVIDESSGTS [SMC4] = 2.01
• KFILQILQILNLMILNT [YML103C/NUP188] = 1.42
• DAIAVTKGHGFEGVTHR [RPL3] = 3.37
• VRGGNIEIMGILMGFTL [RRI1] = 2.31
• CLGIKDEEMLTSCTIPK [GAL11] = 2.68
• SFELKEEDISDLWNNFG [RRP6] = 2.47
• IGANIYQSPTIFKIVQS [MED6] = 1.84
• SQRPGARILARSERKRT [ITC1] = 3.07
• IQYVTYLLTQQQIWKSP [SOH1] = 1.71
• DRQCMIMDELLSSIAER [DIB1] = 2.88
• KPSPIDSGIGSNGSGIV [CSL4] = 2.94
• AETKSYDSRGVGEMKLL [YLR335W/NUP2] = 2.25
• AVYETLISRMIFIATQL [BRR2] = 1.29
• VPSFLRPDITMYCRPAP [GRR1] = 2.1
• FSKGDADVLVDRVVSSD [SRP72] = 3.02
• LREHFKNTEEGKALVHH [QCR6] = 3.34
• APSGIRMHLAPASKQGY [SSN2] = 2.22
• EDFMDIPKPRTAGKTSV [SNF2] = 3.2
• MVDESDKKQQTIDEQSQ [RPN1] = 3.38
• KDIKANLSSNVNFTEIG [YCS4] = 2.77
• TSKSFSKLLYDDVTCDK [SIN4] = 2.7
• AMLNLINDNNTRPYILE [YCG1] = 3.08
• NQDSVKTYALESINNVV [RPN2] = 2.95
• VKIMRDPAKSRTGPKAL [RPS3] = 3.06
• VDPFDSDEEESVLDEQE [SNU114] = 3.39
• PKFDVGALMALHGEGSG [RPS1A] = 2.23
• NIKIDAKPALFERFINA [MCD1] = 2.3
